- Tested on: HBV genome in HEK293T cells transduced with a lentiviral vector
- Procedure Text: Base editing efficiency in Hek293-lentiHBV system (PCR amplicons sequenced on MiSeq)
- Format: cell-based, Hepatitis B virus
- Parameters: concentration or dose not given beside the values
- Details: replicate 2, base editor Cas12b-ABE, plasmid transfection, four days
Strand notation (5' to 3'): a small letter for the sugar, then the base; units joined by * are phosphorothioate-linked, units joined directly phosphodiester-linked; [ ] holds rarer units or linkages, { } end groups; capitals alone tell only the bases. m = 2'-O-methyl; r = 2'-OH (RNA)
Outcome: met for Editing Efficiency 2 (%) of at least 20%; not met for anything lower.

// query Given the entry cas12b-35: guide RNA SEQ ID NO: 388 (nucleic acid) guide: mG*mU*mU*rCrUrGrUrCrUrUrUrUrGrGrUrCrArGrGrArCrArArCrCrGrUrCrUrArGrCrUrArUrArArGrUrGrCrUrGrCrArGrGrGrUrGrUrGrArGrArArArCrUrCrCrUrArUrUrGrCrUrGrGrArCrGrArUrGrUrCrUrCrUrUrArCrGrArGrGrCrArUrUrArGrCrArCrCrCrCrArArGrGrUrCrUrUrArCrArUrArArGrArG , answer whether its Editing Efficiency 2 (%) meets or surpasses 20%.
// result not met

// query Reported Editing Efficiency 2 (%) reaches at least 20% for cas12b-154: guide RNA SEQ ID NO: 387 (nucleic acid) guide: mG*mU*mU*rCrUrGrUrCrUrUrUrUrGrGrUrCrArGrGrArCrArArCrCrGrUrCrUrArGrCrUrArUrArArGrUrGrCrUrGrCrArGrGrGrUrGrUrGrArGrArArArCrUrCrCrUrArUrUrGrCrUrGrGrArCrGrArUrGrUrCrUrCrUrUrArCrGrArGrGrCrArUrUrArGrCrArCrUrUrGrUrCrArArCrArArGrArArArArArCrCrCrC ?
// result met

// query Textbook exercise: given the entry cas12b-4: guide RNA SEQ ID NO: 379 (nucleic acid) guide: mG*mU*mU*rCrUrGrUrCrUrUrUrUrGrGrUrCrArGrGrArCrArArCrCrGrUrCrUrArGrCrUrArUrArArGrUrGrCrUrGrCrArGrGrGrUrGrUrGrArGrArArArCrUrCrCrUrArUrUrGrCrUrGrGrArCrGrArUrGrUrCrUrCrUrUrArCrGrArGrGrCrArUrUrArGrCrArCrArCrArArGrArArUrCrCrUrCrArCrArArUrArCrC , state whether its Editing Efficiency 2 (%) is greater than or equal to 20%.
// result met
